Target: TDP-43 (Homo sapiens, UniProt Q13148 1-414)
Sequence (Q13148 whole entry): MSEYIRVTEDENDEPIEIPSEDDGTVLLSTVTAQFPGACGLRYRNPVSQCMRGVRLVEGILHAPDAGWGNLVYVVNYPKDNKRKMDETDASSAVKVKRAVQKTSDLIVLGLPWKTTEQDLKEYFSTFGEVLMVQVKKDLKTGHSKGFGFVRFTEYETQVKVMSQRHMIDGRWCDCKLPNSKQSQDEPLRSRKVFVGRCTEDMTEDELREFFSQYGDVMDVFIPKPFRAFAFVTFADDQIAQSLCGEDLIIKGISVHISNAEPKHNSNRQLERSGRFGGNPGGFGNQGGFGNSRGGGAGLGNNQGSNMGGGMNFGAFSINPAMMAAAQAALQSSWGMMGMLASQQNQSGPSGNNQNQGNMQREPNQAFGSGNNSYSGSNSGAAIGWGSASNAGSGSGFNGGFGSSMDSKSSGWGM
Experiment: RNA Bind-n-Seq with designed 260-mer pool; 25 mM Tris-HCl, 150 mM KCl, 3 mM MgCl2, BSA (printed 500 mg/mL), 20 units/mL SUPERase IN; pH not stated; 500 nM RNA pool, 1 h, 4 C; TDP-43 5, 50, 500 nM; high values mean tight binding
Conditions: protein: recombinant; tags: SBP (GST cleaved off with PreScission; pGEX-GST-SBP)
The full ranking holds about 9,900 sequences; the median of “r (bound/input frequency ratio)” is about 0.7, and the highest 2% start at about 6.5. The list comes from a sample in which the highest values are over-represented; it also holds close analogues and randomly drawn sequences.
quantity_name: binding signal

**Q:** Report binding signal, nothing else, for this binder: ENSMUSG00000043670.174|Diras1 (ssRNA) RNA: GGGAGUUCUACAGUCCGACGAUCGCUUCGAUAUCCGCAUGCUACAGCAAAGUCCCUGUGUGCGGUGAUAGGACUAGUGGCUGCUGCCCUAGGGCUCUGACAGAAUCUGAGCCUCUUUGCUGGUCAUGUGUACUCUGGAGACUGUCCCCCAUGUCUGCCCUGAGUUACGGAGCCCCUGUGGUAUCUGCGAGACUGUCCAGGAGACUUGAGUGGCUCCUGGGCCUGUGUCCCACCCAGAUGAGGGUGACUUAGAAUUCUGUGUUUAUGUGCCUGUGUGUGUGGAUGGGUGUGUGUCUGUCUUGGGCUCUUGCGGUCGCACUAGUGUGGAAUUCUCGGGUGUCAAGG
**A:** 5.89 R (bound/input frequency ratio)
